# test: Plasma protein binding by equilibrium dialysis, human plasma
# Format: in vitro ADME
# condition label: human, plasma, human plasma, 50, 500, 2500 ng/mL; read-out: mean plasma protein binding (PPB) (converted)
measurement name: fraction unbound at 5 h

compound | result
CC(=O)Nc1ccc(NC(=O)c2ccc(C(C)=O)o2)cc1 [Compound 25a] | ~0.6

---

# test: Tissue distribution study in rats
# Type: in vivo, SD rats
# condition label: male, Sprague-Dawley, rat, testis, single oral dose 100 mg/kg
measurement name: AUC(0-t) (ng·h/mL)

compound | measurement name | numeric result
CC(=O)Nc1ccc(NC(=O)c2ccc(C(C)=O)o2)cc1 [Compound 25a] | AUC(0-t) | 338
